assay: inhibitors of E-selectin induction by TNFa, primary screen, imaging, HUVEC, immunofluorescence, MLSMR starter and 10KST1 sets (AID 487); settings: HUVEC TNFalpha-induced E-selectin immunofluorescence imaging, at 2 µM; active compounds read high;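 note: signal is fraction of cell area covered by stained E-selectin grains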
Decision: inhibition compared against -70%; not below it gives Met, below it gives Not met.

| compound | qualitative label |
| --- | --- |
| CC[N+](C)(CC)CCOC(=O)C(O)(c1ccccc1)C1CCCCC1 (stereo unspecified) | Met |
| CCOC(=O)c1cc2c(=O)n3cccc(C)c3nc2n(C)c1=N | Met |
| Cn1c(=O)c2c3c(sc2n2c(SCc4ccccc4)nnc12)CCCC3 | Met |
| CC1=NN(c2ccccc2)C(=O)C1 | Not met |
| Cn1cc(Br)cc2nc(C(F)(F)F)nc1-2 | Not met |
| CC(C)(S)[C@@H](N)C(=O)O | Not met |
| Clc1ccc(SCc2cn3ccsc3n2)cc1 | Met |
| Cc1cc(C)nc(CC(N)=O)n1 | Met |
| CCCc1cc(-n2ccnc2C)n2c(nc3ccccc32)c1C#N | Not met |
| CCCNC(=O)N(C)c1nncnc1C(=O)NC | Met |
